Data origin, for the record: PubChem BioAssay (NCI)

// reported TGI per item
Tested on: SNB-75 CNS
Experiment: NCI tumour cell line growth inhibition, 48 h
observed-property: TGI (µM)

>  <compound>
O=C(/C=C/c1ccc(O)c(O)c1)OCC(OC(=O)/C=C/c1ccc(O)c(O)c1)C(=O)O (stereo unspecified)

>  <measurement-target>
SNB-75 CNS

>  <op>
>

>  <readout-value>
100

$$$$
>  <compound>
CN(/N=C/c1ccc(C(=O)O)cc1)C1=NCCCCN1

>  <measurement-target>
SNB-75 CNS

>  <op>
>

>  <readout-value>
100

$$$$
>  <compound>
Cc1ccc(C(=O)N/N=C(\N=Nc2cccc([N+](=O)[O-])c2)c2ccc(N(CCC#N)CCC#N)cc2C)cc1

>  <measurement-target>
SNB-75 CNS

>  <op>
=

>  <readout-value>
74.1

$$$$
>  <compound>
CCC(=O)OC[n+]1ccc2c(C)c3[nH]c4ccccc4c3c(C)c2c1

>  <measurement-target>
SNB-75 CNS

>  <op>
=

>  <readout-value>
2.55

$$$$
>  <compound>
COc1cc(C2c3cc4c(cc3OC(C)(N3CCCC3)C2C)OCO4)cc(OC)c1OC (stereo unspecified)

>  <measurement-target>
SNB-75 CNS

>  <op>
=

>  <readout-value>
0.65

$$$$
>  <compound>
CC1(C)C2CCC1(C)C(N/C(Sc1ccccc1)=C(/C(Cl)=C(Cl)Cl)[N+](=O)[O-])C2 (stereo unspecified)

>  <measurement-target>
SNB-75 CNS

>  <op>
=

>  <readout-value>
30.4

$$$$
>  <compound>
O=c1oc2ccccc2c(Nc2ccc3c(c2)Sc2ccccc2O3)c1[N+](=O)[O-]

>  <measurement-target>
SNB-75 CNS

>  <op>
=

>  <readout-value>
58.3

$$$$
>  <compound>
Cc1cccc(Cl)c1NCC(O)CN1CCN(C)CC1 (stereo unspecified)

>  <measurement-target>
SNB-75 CNS

>  <op>
>

>  <readout-value>
100

$$$$
>  <compound>
Cc1ccc(S(=O)(=O)N/N=C2\CCCCC23CCC(=O)NC3)cc1 (stereo unspecified)

>  <measurement-target>
SNB-75 CNS

>  <op>
>

>  <readout-value>
100

$$$$
>  <compound>
Cc1ccc(C2=C(c3ccc(C)cc3)C3(c4ccc(C)cc4)C4C(=O)OC(=O)C4C2(c2ccc(C)cc2)S3=O)cc1 (stereo unspecified)

>  <measurement-target>
SNB-75 CNS

>  <op>
=

>  <readout-value>
36.8

$$$$
>  <compound>
O=C(NC(=O)c1c(F)cccc1F)Nc1cccc(Oc2ncc(Cl)cn2)c1

>  <measurement-target>
SNB-75 CNS

>  <op>
=

>  <readout-value>
60.3

$$$$
>  <compound>
C=CCCON(C(=O)OC(C)(C)C)c1ccccc1

>  <measurement-target>
SNB-75 CNS

>  <op>
>

>  <readout-value>
100

$$$$
>  <compound>
COc1ccc2c(c1)CN1C(=N2)CSC1c1cccc(Br)c1 (stereo unspecified)

>  <measurement-target>
SNB-75 CNS

>  <op>
=

>  <readout-value>
64.5

$$$$
>  <compound>
CCN1C(=O)/C(=C/c2c(Cl)[nH]c3cc(C)c(OC)cc23)c2ccccc21

>  <measurement-target>
SNB-75 CNS

>  <op>
>

>  <readout-value>
100

$$$$
>  <compound>
CCCCC1(NN=C2CCCCC2)C(=O)N(c2ccccc2)N(c2ccccc2)C1=O

>  <measurement-target>
SNB-75 CNS

>  <op>
>

>  <readout-value>
100

$$$$
>  <compound>
COc1ccc(/C=C2\N=C(N3CCCCC3)NC2=O)cc1

>  <measurement-target>
SNB-75 CNS

>  <op>
>

>  <readout-value>
100

$$$$
>  <compound>
CCC1=CCN(c2cc(C)ccn2)OC1c1ccc(OC)cc1 (stereo unspecified)

>  <measurement-target>
SNB-75 CNS

>  <op>
>

>  <readout-value>
100

$$$$
>  <compound>
COCCOC(=O)C1=C(O)c2ccccc2S(=O)(=O)N1C

>  <measurement-target>
SNB-75 CNS

>  <op>
=

>  <readout-value>
87.6

$$$$
>  <compound>
CNC(=O)OCc1c(COC(=O)NC)c(-c2ccc(-c3ccccc3)cc2)n(C)c1C

>  <measurement-target>
SNB-75 CNS

>  <op>
=

>  <readout-value>
10.6

$$$$
>  <compound>
CCN(CC)CCNC(Cc1ccccc1)c1ccc(OCc2ccccc2)cc1 (stereo unspecified)

>  <measurement-target>
SNB-75 CNS

>  <op>
=

>  <readout-value>
18

$$$$
>  <compound>
CSC(SC)(C(=O)O)c1cc(-c2c(Cl)cccc2Cl)no1

>  <measurement-target>
SNB-75 CNS

>  <op>
>

>  <readout-value>
100

$$$$
